Cited source for all entries: ChEMBL document CHEMBL1131002

Assayed System: Sodium-dependent dopamine transporter (Rattus norvegicus)
Procedure Details: Inhibition of dopamine Transporter Affinity against rat whole brain using [3H]WIN-35428 as radioligand
Just so you know, the groups by IC50 go like this: one (below 1000 nM), two (1000 nM to below 3000 nM), three (3000 nM or more)

Here's what some known entries look like.
# Compound, Cat
rows = [
    ("C=C[C@@H]1C2CCC(C[C@@H]1OC(=O)c1ccc(I)cc1)N2C (stereo partly drawn)", "two"),
    ("CN1C2CCC1[C@@H](c1nc(-c3ccccc3)no1)[C@@H](OC(=O)c1ccc(I)cc1)C2 (stereo partly drawn)", "three"),
    ("CN1C2CCC1[C@@H](CO)[C@@H](OC(=O)c1ccc(I)cc1)C2 (stereo partly drawn)", "three"),
    ("CN1C2CCC1[C@@H](C(=O)Oc1ccccc1)[C@@H](OC(=O)c1ccc(I)cc1)C2 (stereo partly drawn)", "two"),
    ("CC(C)OC(=O)[C@@H]1C2CCC(C[C@@H]1OC(=O)c1ccc(I)cc1)N2C (stereo partly drawn)", "two"),
    ("CC(C)OC(=O)[C@@H]1C2CCC(C[C@@H]1OC(=O)c1ccc(I)cc1O)N2C (stereo partly drawn)", "one"),
]

Q: Dear colleague, I would appreciate it if you could identify the bin for CC[C@@H]1C2CCC(C[C@@H]1OC(=O)c1ccc(I)cc1)N2C (stereo partly drawn) and reply at your convenience.
A: two

Q: Dear colleague, I would appreciate it if you could identify the bin for COC(=O)[C@@H]1C2CCC(C[C@@H]1OC(=O)c1ccccc1O)N2C (stereo partly drawn) and reply at your convenience.
A: one

Q: Dear colleague, I would appreciate it if you could identify the bin for COC(=O)[C@@H]1C2CCC(C[C@@H]1OC(=O)c1ccc(I)cc1O)N2C (stereo partly drawn) and reply at your convenience.
A: one

* * *

Assayed System: Norepinephrine transporter (Rattus norvegicus, UniProt Q9WTR4)
Sequence (Q9WTR4 whole entry): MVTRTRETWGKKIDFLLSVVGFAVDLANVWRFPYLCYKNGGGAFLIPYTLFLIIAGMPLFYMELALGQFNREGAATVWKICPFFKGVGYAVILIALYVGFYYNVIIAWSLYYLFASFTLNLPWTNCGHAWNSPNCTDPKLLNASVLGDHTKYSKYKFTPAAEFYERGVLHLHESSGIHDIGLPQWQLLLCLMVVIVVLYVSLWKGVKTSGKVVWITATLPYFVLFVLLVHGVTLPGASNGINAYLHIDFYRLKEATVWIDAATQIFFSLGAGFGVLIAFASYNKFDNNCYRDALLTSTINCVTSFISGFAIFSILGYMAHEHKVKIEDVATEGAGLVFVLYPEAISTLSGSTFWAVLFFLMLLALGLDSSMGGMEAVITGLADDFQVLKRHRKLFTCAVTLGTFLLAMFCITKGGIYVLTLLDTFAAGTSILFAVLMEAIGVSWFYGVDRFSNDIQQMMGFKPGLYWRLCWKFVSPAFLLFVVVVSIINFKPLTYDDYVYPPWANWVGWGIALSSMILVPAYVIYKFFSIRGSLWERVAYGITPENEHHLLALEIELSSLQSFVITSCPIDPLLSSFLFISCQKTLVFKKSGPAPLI
Procedure Details: Inhibition of norepinephrine Transporter Affinity against rat whole brain using [3H]nisoxetine radioligand
pIC50: −log10 of the molar value.
The threshold is inclusive: pIC50 of exactly 7 counts as Met; values below receive Not met.

# Compound, Cat
measured = [
    ("COC(=O)[C@@H]1C2CCC(C[C@@H]1OC(=O)c1ccc(I)cc1)N2C (stereo not given in full)", "Not met"),
    ("COC(=O)[C@@H]1C2CCC(C[C@@H]1OC(=O)c1ccc(I)cc1O)N2C (stereo not given in full)", "Not met"),
    ("COC(=O)[C@H]1[C@@H](c2ccc(F)cc2)C[C@H]2CC[C@H]1N2C", "Not met"),
    ("COC(=O)[C@@H]1C2CCC(C[C@@H]1OC(=O)c1ccccc1O)N2C (stereo not given in full)", "Met"),
]

Let us examine a further case.
Q: Record CC(C)OC(=O)[C@@H]1C2CCC(C[C@@H]1OC(=O)c1ccc(I)cc1O)N2C (stereo not given in full) ; criterion: pIC50 no lower than 7. Met?
A: Not met

* * *

Assayed System: Sodium-dependent serotonin transporter (Rattus norvegicus)
Sequence (P31652 whole entry): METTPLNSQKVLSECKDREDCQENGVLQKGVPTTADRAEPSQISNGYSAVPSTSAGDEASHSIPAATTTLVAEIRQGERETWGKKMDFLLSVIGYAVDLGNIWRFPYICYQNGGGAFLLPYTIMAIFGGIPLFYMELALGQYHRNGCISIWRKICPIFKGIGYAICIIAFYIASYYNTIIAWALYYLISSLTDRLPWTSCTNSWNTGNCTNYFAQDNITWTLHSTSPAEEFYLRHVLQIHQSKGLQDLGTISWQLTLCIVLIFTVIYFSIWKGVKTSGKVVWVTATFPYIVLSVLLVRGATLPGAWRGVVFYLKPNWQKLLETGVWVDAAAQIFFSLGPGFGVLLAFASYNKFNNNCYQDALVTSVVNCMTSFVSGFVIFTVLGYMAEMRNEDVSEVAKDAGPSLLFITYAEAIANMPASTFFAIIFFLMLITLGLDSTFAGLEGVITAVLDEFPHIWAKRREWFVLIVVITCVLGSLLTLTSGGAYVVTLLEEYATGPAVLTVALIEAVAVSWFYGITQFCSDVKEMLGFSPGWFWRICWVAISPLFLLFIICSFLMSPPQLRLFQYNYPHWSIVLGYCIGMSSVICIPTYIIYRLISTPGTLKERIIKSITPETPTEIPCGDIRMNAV
Procedure Details: Inhibition of serotonin Transporter Affinity against rat whole brain using [3H]paroxetine as radioligand
Catalogue of compounds with associated pIC50
When answering, recall that pIC50 equals minus log10 of the concentration in mol/L, and write that number alone.

Field pIC50 (entry COC(=O)[C@@H]1C2CCC(C[C@@H]1OC(=O)c1ccccc1O)N2C (some centres undefined) ) reads 6.84

Field pIC50 (entry COC(=O)[C@@H]1C2CCC(C[C@@H]1OC(=O)c1ccc(I)cc1O)N2C (some centres undefined) ) reads 6.71

Field pIC50 (entry CC(C)OC(=O)[C@@H]1C2CCC(C[C@@H]1OC(=O)c1ccc(I)cc1O)N2C (some centres undefined) ) reads 5.35

Field pIC50 (entry COC(=O)[C@@H]1C2CCC(C[C@@H]1OC(=O)c1ccc(I)cc1)N2C (some centres undefined) ) reads 5.98

* * *

Assayed System: Monoamine transporters; Norepininephrine & dopamine (Rattus norvegicus) (UniProt P23977+Q9WTR4)
Procedure Details: Selectivity for Norepinephrine and Dopamine Transporters was evaluated
Assay type: protein assay
Catalogue of molecules with associated Selectivity

Below: 3 molecules and their reported Selectivity.
# Molecule, Selectivity
rows = [
    ("COC(=O)[C@@H]1C2CCC(C[C@@H]1OC(=O)c1ccccc1O)N2C (some centres undefined)", 1.9),
    ("COC(=O)[C@@H]1C2CCC(C[C@@H]1OC(=O)c1ccc(I)cc1O)N2C (some centres undefined)", 4.7),
    ("COC(=O)[C@@H]1C2CCC(C[C@@H]1OC(=O)c1ccc(I)cc1)N2C (some centres undefined)", 7.3),
]

Then this molecule:
Field Selectivity (entry CC(C)OC(=O)[C@@H]1C2CCC(C[C@@H]1OC(=O)c1ccc(I)cc1O)N2C (some centres undefined) ) reads 52.5

* * *

Assayed System: Sodium-dependent dopamine transporter (Rattus norvegicus, UniProt P23977)
Sequence (P23977 whole entry): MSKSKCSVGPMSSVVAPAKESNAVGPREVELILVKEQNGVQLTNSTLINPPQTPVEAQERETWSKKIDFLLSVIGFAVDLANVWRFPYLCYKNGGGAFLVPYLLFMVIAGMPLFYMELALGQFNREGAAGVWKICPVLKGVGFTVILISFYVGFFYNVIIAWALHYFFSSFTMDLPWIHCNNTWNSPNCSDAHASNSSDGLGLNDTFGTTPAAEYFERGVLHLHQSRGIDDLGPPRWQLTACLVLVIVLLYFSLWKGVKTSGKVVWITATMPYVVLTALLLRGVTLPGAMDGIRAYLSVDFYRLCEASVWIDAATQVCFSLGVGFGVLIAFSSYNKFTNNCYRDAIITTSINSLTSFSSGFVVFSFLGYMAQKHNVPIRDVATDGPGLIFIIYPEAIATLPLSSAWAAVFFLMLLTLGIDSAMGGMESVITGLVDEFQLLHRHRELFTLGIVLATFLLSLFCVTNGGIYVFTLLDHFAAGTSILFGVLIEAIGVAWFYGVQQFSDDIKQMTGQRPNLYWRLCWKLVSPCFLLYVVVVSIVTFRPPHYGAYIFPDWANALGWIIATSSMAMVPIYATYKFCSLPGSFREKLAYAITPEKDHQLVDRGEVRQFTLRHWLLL
Procedure Details: Inhibition of dopamine Transporter Affinity against rat whole brain using [3H]WIN-35428 as radioligand
Measured Metric: pIC50
When answering, recall that pIC50 equals minus log10 of the concentration in mol/L, and write that number alone.

Below: 2 compounds and their reported pIC50.
# Compound, pIC50
records = [
    ("CC(=O)OC[C@@H]1C2CCC(C[C@@H]1OC(=O)c1ccc(I)cc1)N2C (some centres undefined)", 5.52),
    ("CCOC(=O)[C@@H]1C2CCC(C[C@@H]1OC(=O)c1ccc(I)cc1)N2C (some centres undefined)", 5.69),
]

Then this compound:
Field pIC50 (entry CN1C2CCC1[C@@H](C(=O)OCc1ccccc1)[C@@H](OC(=O)c1ccc(I)cc1)C2 (some centres undefined) ) reads 5.34
